# Tested on: colorectal carcinoma HCT116 cells
# EXPERIMENT_DESCRIPTION: Antiproliferative activity
# Assay type: cell-based, human
# EXPERIMENTAL_CONTEXT: read-out: GI50, HCT116, four days
For each of the molecules below, state its GI50.

- MOLECULE: "OC[C@H]1O[C@@H](n2cnc3c(NCc4ccccc4)nc(-n4cc(-c5ccccc5)nn4)nc32)[C@H](O)[C@@H]1O [Compound 35]"
  MEASUREMENT: "43.6 µM"
- MOLECULE: "OC[C@H]1O[C@@H](n2cnc3c(O)nc(-n4cc(-c5ccccc5)nn4)nc32)C[C@@H]1O [Compound 25]"
  MEASUREMENT: "> 50 µM"
- MOLECULE: "COc1ccc(-c2cn(-c3nc(O)c4ncn([C@H]5C[C@H](O)[C@@H](CO)O5)c4n3)nn2)cc1 [Compound 26]"
  MEASUREMENT: "> 50 µM"

Shifting focus to the molecule that follows.
**Q:** Quick one: GI50 for CCCCc1cn(-c2nc(O)c3ncn([C@H]4C[C@H](O)[C@@H](CO)O4)c3n2)nn1 [Compound 30] ?
**A:** > 50 µM

----------
# Test system: cytomegalovirus (CMV) AD-169 strain
# EXPERIMENT_DESCRIPTION: Anti-CMV activity
# Type: cell-based
# EXPERIMENTAL_CONTEXT: read-out: anti-CMV activity EC50, AD-169 strain
pEC50: −log10 of the molar value.
MEASUREMENT_KIND: pEC50

- CHEM_SMILES: "CCCCc1cn(-c2nc(O)c3ncn([C@H]4C[C@H](O)[C@@H](CO)O4)c3n2)nn1"
  MEASUREMENT: "< 3.57"
- CHEM_SMILES: "OC[C@H]1O[C@@H](n2cnc3c(O)nc(-n4cc(-c5ccccc5)nn4)nc32)C[C@@H]1O"
  MEASUREMENT: "≤ 3.60"
- CHEM_SMILES: "COc1ccc(-c2cn(-c3nc(O)c4ncn([C@H]5C[C@H](O)[C@@H](CO)O5)c4n3)nn2)cc1"
  MEASUREMENT: "< 3.62"

Below is a list of compounds. For each, state its recorded pEC50.
1. OC[C@H]1O[C@@H](n2cnc3c(O)nc(-n4cc(-[c-]5cccc5)nn4)nc32)C[C@@H]1O.[Fe+2].c1cc[cH-]c1
2. OCc1cn(-c2nc(O)c3ncn([C@H]4C[C@H](O)[C@@H](CO)O4)c3n2)nn1
3. O=C1c2ccccc2C(=O)N1Cc1cn(-c2nc(O)c3ncn([C@H]4C[C@H](O)[C@@H](CO)O4)c3n2)nn1

**A:**
1: ≤ 3.70; 2: < 3.54; 3: < 3.68

----------
# Tested on: human ovarian cancer 1A9 cells
# EXPERIMENT_DESCRIPTION: Antiproliferative activity
# Assay type: cell-based
# EXPERIMENTAL_CONTEXT: read-out: GI50, 1A9; ovarian 1A9; four days
Would you kindly list GI50 for each of these molecules?
One number for each entry, in µM.

Here's what some known entries look like.
- MOLECULE: "OC[C@H]1O[C@@H](n2cnc3c(O)nc(-n4cc(-c5ccccc5)nn4)nc32)[C@H](O)[C@@H]1O [Compound 17]"
  TARGET: "human ovarian cancer 1A9 cells"
  MEASUREMENT_KIND: "GI50"
  UNIT_NAME: "µM"
  MEASUREMENT: 22.8
- MOLECULE: "CCCCc1cn(-c2nc(O)c3ncn([C@H]4C[C@H](O)[C@@H](CO)O4)c3n2)nn1 [Compound 30]"
  TARGET: "human ovarian cancer 1A9 cells"
  MEASUREMENT_KIND: "GI50"
  UNIT_NAME: "µM"
  MEASUREMENT: 46.1
- MOLECULE: "OC[C@H]1O[C@@H](n2cnc3c(O)nc(-n4cc(-[c-]5cccc5)nn4)nc32)C[C@@H]1O.[Fe+2].c1cc[cH-]c1 [Compound 29]"
  TARGET: "human ovarian cancer 1A9 cells"
  MEASUREMENT_KIND: "GI50"
  UNIT_NAME: "µM"
  MEASUREMENT: 41.6
- MOLECULE: "O=C1c2ccccc2C(=O)N1Cc1cn(-c2nc(O)c3ncn([C@H]4C[C@H](O)[C@@H](CO)O4)c3n2)nn1 [Compound 28]"
  TARGET: "human ovarian cancer 1A9 cells"
  MEASUREMENT_KIND: "GI50"
  UNIT_NAME: "µM"
  MEASUREMENT: 49.6
- MOLECULE: "COc1ccc(-c2cn(-c3nc(O)c4ncn([C@H]5C[C@H](O)[C@@H](CO)O5)c4n3)nn2)cc1 [Compound 26]"
  TARGET: "human ovarian cancer 1A9 cells"
  MEASUREMENT_KIND: "GI50"
  UNIT_NAME: "µM"
  MEASUREMENT: 37.2
- MOLECULE: "OC[C@H]1O[C@@H](n2cnc3c(O)nc(-n4cc(-c5ccccc5)nn4)nc32)C[C@@H]1O [Compound 25]"
  TARGET: "human ovarian cancer 1A9 cells"
  MEASUREMENT_KIND: "GI50"
  UNIT_NAME: "µM"
  MEASUREMENT: 31
- MOLECULE: "OC[C@H]1O[C@@H](n2cnc3c(NCc4ccccc4)nc(-n4cc(-c5ccccc5)nn4)nc32)[C@H](O)[C@@H]1O [Compound 35]"
  TARGET: "human ovarian cancer 1A9 cells"
  MEASUREMENT_KIND: "GI50"
  UNIT_NAME: "µM"
  MEASUREMENT: 5

Below: the item to evaluate.
**Q:** GI50 of OCc1cn(-c2nc(O)c3ncn([C@H]4C[C@H](O)[C@@H](CO)O4)c3n2)nn1 [Compound 27] on human ovarian cancer 1A9 cells?
**A:** 49.4

Entry source: paper PMC3427785
